- Assay Protocol: HepG2 cytotoxicity, primary screen, cytotoxicity control for P. falciparum antimalarial project, cell-based, ATP luminescence (AID 2303)
- Condition Set: HepG2 viability, 24-48 h, at 10 µM
Calls of active or inactive are those of the source.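 How the source made its calls: active means inhibition above 50%; inactive means the rest.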
Returns: one label drawn from active, inactive

- Compound: "CCNc1cc(-c2cccc(OC)c2)nc(Nc2ccc(F)cc2)n1"
  Category: "inactive"
- Compound: "CC(=O)Nc1ccc(CN2CCC(CNC(=O)c3cc(-c4cccc(C(F)(F)F)c4)cs3)C2)cc1 (centres undefined)"
  Category: "inactive"
- Compound: "Cc1cccc2[nH]c(-c3ccc(-c4ccc(NC(=O)Nc5ccc(Cl)c(Cl)c5)cc4)cc3)nc12"
  Category: "inactive"
- Compound: "Cc1cccc2[nH]c(-c3ccc(-c4cccc(CNC(C)C)c4)s3)nc12"
  Category: "inactive"
- Compound: "Cc1cccc2[nH]c(-c3ccc(-c4cccc(NC(=O)NCc5cccc(F)c5)c4)s3)nc12"
  Category: "inactive"
- Compound: "O=C(N[C@@H](Cc1ccccc1)C(=O)NCCN1CCCC1)c1ccc(O)c(-c2ccc(Cl)c(Cl)c2)c1"
  Category: "inactive"
- Compound: "COc1cccc(C2=CC(C)(C)Oc3cc(OCCN(C)C)ccc32)c1"
  Category: "active"
- Compound: "CC1Cc2ccccc2N1S(=O)(=O)c1cccc(C(=O)Nc2nc(-c3ccccn3)cs2)c1 (centres undefined)"
  Category: "inactive"
- Compound: "O=C(NCCCN1CCC(NC(=O)c2ccc(-c3cccnc3)cc2)CC1)c1ccc(Cl)c(Cl)c1"
  Category: "inactive"
- Compound: "CN1CCN(S(=O)(=O)c2ccc3nccc(Nc4ccc(Oc5ccccc5)cc4)c3c2)CC1"
  Category: "inactive"

Which outcome did this test record for the compound Cc1cccc2[nH]c(-c3cccc(-c4ccc(CN5CCCC5CN)cc4)c3)nc12 (centres undefined) ? inactive

Next: CCc1cn2c3c(cc(C(=O)N[C@@H](Cc4cccc(F)c4)[C@H](O)CNC4CC4)cc13)N(C)S(=O)(=O)CC2 inactive

Next: Cc1cccc2[nH]c(-c3ccc(-c4ccc(CN5CCCC(O)C5)cc4)cc3)nc12 (centres undefined) inactive

Next: OCC1CCCCN1Cc1cccc(-c2cccc(-c3nc4ccccc4[nH]3)c2)c1 (centres undefined) inactive
